In this section, each of the compounds is paired with its reported composite z-score.
Target: Neurogenic locus notch homolog protein 2 (Homo sapiens)
Experiment: small molecules binding Notch2 protein – biochemical, small-molecule microarray, 635 nm fluorescence, stem cell growth factors, primary screen (AID 1073)
Settings: higher = more signal
measured-attribute: composite z-score

> print(dat)
                                   compound  assay.value
1  CN(C)C(=O)[C@]1(CCC(=O)OC(C)(C)C)N=C(c2ccc(OCCCO)cc2)O[C@@H]1c1ccccc1CN=[N+]=[N-]        0.934
2  CCC1=C2CN(Cc3ccccc3)[C@@H](C(=O)Cc3ccccc3)C2C=CCC1 (stereo partly drawn)       -0.227
3  COC(=O)[C@@]1(Cc2ccc(F)cc2)[C@H]2c3cc(C(=O)N4CCCC4)n(CCc4c[nH]c5ccccc45)c3C[C@H]2CN1C(=O)c1ccccc1         1.62
4  O=C(NCc1ccc(F)cc1)[C@H]1C[C@H]2C(=O)NCC(=O)N2[C@H]1c1ccc(O)cc1       -0.336
5  CCCCC[C@H]1OC[C@@]23C=C(Br)[C@@H](CC12)[C@@]1(CO1)C3=O (stereo partly drawn)       -0.308
6  CC(C)c1ccc(NN2C(C(O)c3ccc(C#N)cc3)C=CC3C(=O)N(c4ccccc4)C(=O)C32)cc1 (stereo not drawn)         1.72
7  Cc1ccc(C(C)CC(O)C2C=CC3C(=O)N(c4ccccc4)C(=O)C3N2Nc2ccccc2)o1 (stereo not drawn)         1.65
8  COc1ccccc1CN1C(=O)c2ccccc2[C@](Cc2ccccc2I)(C(=O)O)[C@@H]1c1ccc(CO)cc1         1.51

---

Test: probe aLAP1 signal on lysate-treated microarray – cell lysate, small-molecule microarray, COS7 lysate, primary screen (AID 1124);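 further: lysate comes from COS7 cells expressing LAP1 and is applied at 0.3 µg/mL; score merges spot fluorescence near 667 nm with signal-to-noise over triplicate slides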
Details: probe aLAP1, fluorescence, higher = more signal
Rule: YES for composite z-score not less than 0.07, NO for anything less.

compound	label-class
[N-]=[N+]=Nc1ccccc1C[C@@]1(C(N)=O)N=C(c2ccc(OCCCO)cc2)O[C@@H]1c1ccccc1N=[N+]=[N-]	NO
O=C(C1N=C(c2ccc(OCCCO)cc2)N(c2ccccc2)O1)N1CCCCC1 (centres undefined)	YES
C=CCN1C(=O)[C@]2(CCC(=O)OC(C)(C)C)N=C(c3ccc(OCCCO)cc3)O[C@@H]2c2ccccc21	NO
C=C(/C(=C/C[C@H](OC(=O)c1ccncc1)c1ccc(CO)o1)c1cnc2ccccc2c1)C(C)C	NO
O=C1OCCC=C[C@H]2OC34C=CCN(Cn5nnc6ccccc65)C(=O)[C@H]3N(CCCO)C(=O)[C@@H]4C12 (some centres undefined)	YES
CCCC[C@@H](O)C1=C(COC)C[C@H]2C(=O)N(Cc3ccccc3)C(=O)[C@H]2[C@H]1CO	YES
CCCC1(C(=O)OC)C=C2C(=C(C)C(=O)C2C)CN1 (centres undefined)	NO
C=CCOC(=O)[C@@H]1[C@H]2C(=O)O[C@H](c3ccccc3)[C@H](c3ccccc3)N2[C@H](c2ccc(OCCOC(=O)[C@@H]3C[C@@H]4C(=O)N[C@@H](CCCC[N+](C)(C)C)C(=O)N4[C@@H]3c3ccc(O)cc3)cc2)[C@@]12C(=O)Nc1ccc(I)cc12	YES
CC[C@@H]1O[Si](C(C)C)(C(C)C)c2c1cc(-c1cc(C)c(OC)c(C)c1)nc2-c1ccc(Oc2ccccc2)cc1	NO
CC#CCO[Si](C#Cc1ccccc1)(C(C)C)C(C)C	NO
COCCOC(=O)N1C(=O)[C@@]2(c3cc(C#CC4=CCCCC4)ccc31)[C@H](c1ccccc1OCCO)N1[C@H](c3ccccc3)[C@H](c3ccccc3)OC(=O)[C@H]1[C@@H]2C(=O)N1CCN(c2ncccn2)CC1	YES
COCC(=C=CC[C@H](O)c1ccc(OCCO)cc1)CCO	YES
C=C(COC)C(=O)CC[C@@H](OC(C)=O)c1cccc(OCCO)c1	NO
O=C1OCCC=C[C@H]2OC34C=CCN(c5ccc6ccccc6c5)C(=O)[C@H]3N(CCCO)C(=O)[C@@H]4C12 (some centres undefined)	NO
C=C(COC)/C(=C/C[C@H](OC(=O)c1ccncc1)c1ccc(CO)o1)c1cnc2ccccc2c1	YES
CN(C)C(=O)[C@@]1(Cc2ccccc2)N=C(c2ccc(OCCCO)cc2)O[C@H]1c1ccccc1	YES
CC1CC/C=C\[C@H]2OC34C=CCN(c5ccc(Cl)cc5)C(=O)[C@H]3N(C(C)CO)C(=O)[C@]4(C)C2C(=O)O1 (some centres undefined)	YES
Cc1ccc(N2C(=O)c3ccccc3[C@@H](C(=O)NCCCN(C)C)[C@@H]2c2ccc(CO)cc2)nc1	NO

---

Each item that follows carries a reported composite z-score.
Test: probe aShh binding to arrayed compounds – biochemical, biotinylated probe, 635/667 nm fluorescence, primary screen (AID 1114);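 further: probe is biotin-labelled aShh protein from a stem cell growth factor screen; measures binding of labelled protein to compounds printed on the slide; score merges feature fluorescence at 667 nm with signal-to-noise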
Settings: small-molecule microarray, higher = more signal
measured-attribute: composite z-score

compound	measured-attribute	assay-value
CCOC(=O)C[C@H]1[C@H](OC(=O)c2cc3ccccc3oc2=O)[C@@H](NC(=O)c2ccccc2)c2cc(OCCCO)ccc2N1C(=O)c1ccccc1	composite z-score	0.0121
COc1ccc(CCNC(=O)[C@@H]2c3ccccc3C(=O)N(C3CCCCC3)[C@H]2c2ccc(CO)cc2)cc1	composite z-score	0.0098
CCCNC(=O)[C@@]1(C)c2ccccc2C(=O)N(c2ccc(C)cn2)[C@H]1c1ccc(CO)cc1	composite z-score	-0.291
C=CCNC(=O)[C@@H]1[C@H]2C(=O)O[C@H](c3ccccc3)[C@H](c3ccccc3)N2[C@H](c2ccc(OCCO)cc2)[C@@]12C(=O)N(C(=O)OCCOC)c1ccc(C#Cc3ccc(OC)cc3)cc12	composite z-score	-0.291
[N-]=[N+]=NCc1ccccc1[C@H]1OC(c2ccc(OCCCO)cc2)=N[C@@]1(Cc1ccccc1N=[N+]=[N-])C(=O)NCC(O)CO (some centres not stated)	composite z-score	0.28
NCCCCCNC(=O)[C@@H]1C[C@@H]2C(=O)N[C@@H](CCCCN)C(=O)N2[C@@H]1c1ccc(O)cc1	composite z-score	0.246
O=C(NCCN1CCOCC1)[C@@H]1c2ccccc2C(=O)N(Cc2ccccc2Cl)[C@H]1c1ccc(CO)cc1	composite z-score	-0.471

---

Assay: probe aLefty2 binding to arrayed compounds – biochemical, biotinylated probe, 635/667 nm fluorescence, primary screen (AID 1094);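 further: score merges spot fluorescence near 667 nm with spot signal-to-noise ratio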
Conditions: small-molecule microarray, higher = more signal
Respond with Yes for composite z-score values of 0.03 and above, No for values below.

molecule	label-class
[N-]=[N+]=Nc1ccccc1[C@@H]1OC(c2ccc(OCCCO)cc2)=N[C@]1(Cc1ccccc1)C(=O)N1CCCCC1	No
COc1cccc(C)c1NC(=O)O[C@H]1[C@H](OC(=O)Nc2ccc3c(c2)OCO3)[C@@H](OC(=O)Nc2ccc3c(c2)OCO3)[C@@H](OC)O[C@@H]1CO	Yes
COCC(=C=CC[C@H](O)c1ccc(CO)o1)CCO	No
C=CCC(OC(C)=O)[C@@H]1[C@@H](N(Cc2ccc(-c3ccccc3)cc2)C(=O)c2ccc(-c3ccccc3)cc2)c2cc(OCCCO)ccc2N1C(=O)c1ccc2ccccc2c1 (some centres undefined)	No
CC#CCO[Si](C#Cc1ccccc1)(C(C)C)C(C)C	No
COCCOC(=O)N1C(=O)[C@@]2(c3cc(C#CC4=CCCCC4)ccc31)[C@H](C(=O)Nc1nc3ccccc3s1)[C@H]1C(=O)O[C@H](c3ccccc3)[C@H](c3ccccc3)N1[C@@H]2c1ccc(O)cc1	No
C=CCN1C(=O)[C@]2(CCC(=O)OC(C)(C)C)N=C(c3ccc(OCCCO)cc3)O[C@@H]2c2ccccc21	Yes
Cc1ccc(S[C@]2(C(=O)NCC(F)(F)F)CC(=O)N(Cc3cc(C(F)(F)F)cc(C(F)(F)F)c3)[C@@H]2c2ccc(CO)cc2)cc1	No
COC(=O)[C@@]1(Cc2ccc(OC)cc2)[C@H]2c3cc(C(=O)N4CCCC4)n(CCc4c[nH]c5ccc(O)cc45)c3C[C@H]2CN1C(=O)c1ccccc1	Yes
COC(=O)[C@@]1(Cc2ccc(OC)cc2)[C@H]2c3cc(C(=O)N(C)C)n(Cc4ccc(OC(F)(F)F)cc4)c3C[C@H]2CN1C(=O)c1ccccc1	Yes
COCCCNC(=O)[C@@]1(CCC(=O)OC(C)(C)C)N=C(c2ccc(OCCCO)cc2)O[C@H]1c1ccccc1N=[N+]=[N-]	Yes
COCCCNC(=O)[C@@H]1c2ccccc2C(=O)N(C(C)C)[C@H]1c1ccc(CO)cc1	Yes
[N-]=[N+]=Nc1ccccc1[C@H]1OC(c2ccc(OCCCO)cc2)=N[C@@]1(Cc1ccccc1)C(=O)NCCN1CCOCC1	Yes
COC(=O)[C@@]1(Cc2ccc(F)cc2)[C@H]2c3cc(C(=O)N(C)C)n(Cc4ccc(OC(F)(F)F)cc4)c3C[C@H]2CN1C(=O)c1ccccc1	No

---

Test: probe aNOTCH2 binding on compound microarray – biochemical, small-molecule microarray, 635/667 nm fluorescence, primary screen (AID 1121);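 further: score merges feature fluorescence read at 667 nm with its signal to noise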
Details: higher = more signal
Below, each entry is listed alongside its reported composite z-score.

molecule	composite z-score
O=C1O[C@@H](c2ccccc2)[C@@H](c2ccccc2)N2[C@@H](c3ccc(O)cc3)[C@]3(C(=O)Nc4ccc(C#CCCO)cc43)[C@@H](C(=O)N3CCN(c4ncccn4)CC3)[C@H]12	-0.457
CCCCCCc1nc(Cc2cc(OC)c(OC)c(OC)c2)cc2c1[Si](C(C)C)(C(C)C)OC2	-0.153
COC(=O)[C@@]1(Cc2ccc(OC)cc2)[C@H]2c3cc(C(=O)N4CCCC4)n(CCO)c3C[C@H]2CN1C(=O)c1ccccc1	0.0918
CC#CCO[Si](C#Cc1ccccc1)(C(C)C)C(C)C	-0.156
O=C(NCCN1CCOCC1)[C@@H]1c2ccccc2C(=O)N(C2Cc3ccccc3C2)[C@H]1c1ccc(CO)cc1	0.0129
OCCCC1=CC(c2ccc(CN3CCCC3)cc2)N(Cc2cc3c(cc2Br)OCO3)CC1 (stereo not given)	-0.0467
COCCOC(=O)N1C(=O)[C@@]2(c3ccccc31)[C@H](c1ccc(O)cc1)N1[C@H](c3ccccc3)[C@H](c3ccccc3)OC(=O)[C@H]1[C@@H]2C(=O)N1CCN(c2ncccn2)CC1	0.0456
O=C(NCCN1CCOCC1)[C@@H]1c2ccccc2C(=O)N(Cc2ccccc2Cl)[C@H]1c1ccc(CO)cc1	-0.0986
COCCOC(=O)N1C(=O)[C@@]2(c3cc(C#CCCO)ccc31)[C@H](C(=O)Nc1nc3ccccc3s1)[C@H]1C(=O)O[C@H](c3ccccc3)[C@H](c3ccccc3)N1[C@@H]2c1ccc(O)cc1	0.0687
C=CCNC(=O)[C@@H]1[C@H]2C(=O)O[C@H](c3ccccc3)[C@H](c3ccccc3)N2[C@H](c2ccc(O)cc2)[C@@]12C(=O)N(C(=O)OCCOC)c1ccc(C#CC3=CCCCC3)cc12	-0.14
CCCCCN1CC=CC23O[C@@H]4/C=C\CCC(C)OC(=O)C4[C@H]2C(=O)N(C(CO)C(C)C)[C@@H]3C1=O (stereo not given in full)	-0.182
CCCC=C(CCC)[C@@H](NC(=O)c1cccs1)c1ccc(C(=O)OC)cc1	0.728
C=CCOC(=O)[C@@]1(Cc2ccccc2)C[C@H]2CO[C@H](c3ccc(OC)cc3)N2C1=O	-0.107
CCCCN1CC=CC23O[C@@H]4/C=C\CCCOC(=O)C4[C@H]2C(=O)N(CCO)[C@@H]3C1=O (stereo not given in full)	-0.161
CCOC(=O)C[C@H]1[C@H](OC(=O)c2ccc(-c3ccccc3)cc2)[C@@H](NC(=O)CC(C)C)c2cc(OCCCO)ccc2N1C(=O)c1ccc2ccccc2n1	-0.161
COc1cc(C(O)C2C=CC3C(=O)N(C)C(=O)C3N2Nc2ccccc2)cc(OC)c1OC (stereo not given)	0.106
CC1CC/C=C\[C@H]2OC34C=CCN(C(C)(C)C)C(=O)[C@H]3N(CCCCCO)C(=O)[C@@H]4C2C(=O)O1 (stereo not given in full)	-0.153
COC(=O)[C@@]1(Cc2ccc(OC)cc2)[C@H]2c3cc(C(=O)N4CCCC4)n(CCc4c[nH]c5ccc(OC)cc45)c3C[C@H]2CN1C(=O)c1ccccc1	0.387
O=C(O)[C@@H]1C[C@@H]2C(=O)N3CCC[C@H]3C(=O)N2[C@@H]1c1ccc(O)cc1	-0.0126
C=CCC(OC(C)=O)[C@@H]1[C@@H](N(Cc2ccc(-c3ccccc3)cc2)C(=O)c2ccc(-c3ccccc3)cc2)c2cc(OCCCO)ccc2N1C(=O)c1ccc2ccccc2c1 (stereo not given in full)	-0.115
C=CCNC(=O)[C@@H]1[C@H]2C(=O)O[C@H](c3ccccc3)[C@H](c3ccccc3)N2[C@H](c2ccc(OCCO)cc2)[C@@]12C(=O)N(C(=O)OCCOC)c1ccc(C#Cc3ccc(OC)cc3)cc12	-0.151
CCCC[C@@H]1C[C@H]1[C@@H](NC(=O)c1cccs1)c1ccccc1C(F)(F)F	0.0117
COC(=O)[C@@H]1N=C(c2ccc(OCCCO)cc2)O[C@@H]1c1ccccc1	-0.104
COc1ccc([C@H]2OC[C@@H]3C[C@H](Cc4ccccc4)C(=O)N32)cc1	-0.101
COc1ccc([Si](C)(C)[C@@H]2[C@@H](CC(=O)N(CCO)Cc3ccccc3)O[C@]3(C(=O)N(Cc4cccc(N5CCCCC5=O)c4)c4ccccc43)[C@H]2C)cc1	-0.131
